Target: Acetylcholinesterase (Electrophorus electricus)
Sequence (O42275 whole entry): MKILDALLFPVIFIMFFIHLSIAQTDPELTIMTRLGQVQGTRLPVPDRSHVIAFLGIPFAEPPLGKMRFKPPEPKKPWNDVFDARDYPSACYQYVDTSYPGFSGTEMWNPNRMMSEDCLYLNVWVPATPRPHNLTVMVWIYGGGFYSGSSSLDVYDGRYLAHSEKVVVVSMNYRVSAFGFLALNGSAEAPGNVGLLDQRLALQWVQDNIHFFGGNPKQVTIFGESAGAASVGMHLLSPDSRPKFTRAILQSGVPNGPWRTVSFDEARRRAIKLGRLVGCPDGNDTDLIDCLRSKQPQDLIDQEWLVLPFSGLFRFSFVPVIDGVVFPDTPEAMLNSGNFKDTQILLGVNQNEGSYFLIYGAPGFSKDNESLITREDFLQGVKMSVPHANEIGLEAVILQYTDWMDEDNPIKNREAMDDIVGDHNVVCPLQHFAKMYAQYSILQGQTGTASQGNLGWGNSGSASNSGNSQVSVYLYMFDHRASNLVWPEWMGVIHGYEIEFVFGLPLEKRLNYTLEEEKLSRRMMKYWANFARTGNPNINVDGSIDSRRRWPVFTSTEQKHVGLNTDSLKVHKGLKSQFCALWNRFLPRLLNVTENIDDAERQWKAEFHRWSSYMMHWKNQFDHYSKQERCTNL
Assay Summary: Inhibition of electric eel AChE using acetylthiocholine iodide as substrate incubated for 5 mins followed by substrate addition by Ellman's method
Assay Metric: IC50 (µM)
Please reply with the bare figure in µM and do not write the unit itself.

What value of measured IC50 is listed for COc1cc2c(cc1OC)C(=O)C(Cc1ccc(OC(=O)Nc3ccc(Cl)cc3)cc1)C2 (stereo unspecified) ?
4.64

* * *

Target: Cholinesterase (Equus caballus, UniProt P81908)
Sequence (P81908 whole entry): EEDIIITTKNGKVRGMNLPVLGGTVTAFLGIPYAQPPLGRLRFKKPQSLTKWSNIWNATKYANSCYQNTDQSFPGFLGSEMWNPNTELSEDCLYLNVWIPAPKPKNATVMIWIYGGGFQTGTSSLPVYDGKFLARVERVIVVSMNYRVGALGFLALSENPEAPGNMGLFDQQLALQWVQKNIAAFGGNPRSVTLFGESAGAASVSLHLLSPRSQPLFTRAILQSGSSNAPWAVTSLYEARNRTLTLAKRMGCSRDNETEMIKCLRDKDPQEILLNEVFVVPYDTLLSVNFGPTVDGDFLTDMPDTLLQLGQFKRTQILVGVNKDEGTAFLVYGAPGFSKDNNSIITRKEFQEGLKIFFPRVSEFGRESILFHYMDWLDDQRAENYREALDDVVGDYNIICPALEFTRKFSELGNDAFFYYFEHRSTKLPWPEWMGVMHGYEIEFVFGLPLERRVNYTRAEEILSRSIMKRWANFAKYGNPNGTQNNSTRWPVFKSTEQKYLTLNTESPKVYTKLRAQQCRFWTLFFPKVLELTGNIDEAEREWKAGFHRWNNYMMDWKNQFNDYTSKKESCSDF
Assay Summary: Inhibition of horse BChE using butyrylthiocholine as substrate measured for 5 mins by Ellman's method
Assay Metric: pIC50
Answer as the number alone; pIC50 is minus log10 of concentration in mol/L.

What value of measured pIC50 is listed for O=C(Nc1ccccc1)Oc1cccc(CN2CCN(c3ccccc3)CC2)c1 ?
5.70

* * *

Target: Acetylcholinesterase (Homo sapiens)
Sequence (P22303 whole entry): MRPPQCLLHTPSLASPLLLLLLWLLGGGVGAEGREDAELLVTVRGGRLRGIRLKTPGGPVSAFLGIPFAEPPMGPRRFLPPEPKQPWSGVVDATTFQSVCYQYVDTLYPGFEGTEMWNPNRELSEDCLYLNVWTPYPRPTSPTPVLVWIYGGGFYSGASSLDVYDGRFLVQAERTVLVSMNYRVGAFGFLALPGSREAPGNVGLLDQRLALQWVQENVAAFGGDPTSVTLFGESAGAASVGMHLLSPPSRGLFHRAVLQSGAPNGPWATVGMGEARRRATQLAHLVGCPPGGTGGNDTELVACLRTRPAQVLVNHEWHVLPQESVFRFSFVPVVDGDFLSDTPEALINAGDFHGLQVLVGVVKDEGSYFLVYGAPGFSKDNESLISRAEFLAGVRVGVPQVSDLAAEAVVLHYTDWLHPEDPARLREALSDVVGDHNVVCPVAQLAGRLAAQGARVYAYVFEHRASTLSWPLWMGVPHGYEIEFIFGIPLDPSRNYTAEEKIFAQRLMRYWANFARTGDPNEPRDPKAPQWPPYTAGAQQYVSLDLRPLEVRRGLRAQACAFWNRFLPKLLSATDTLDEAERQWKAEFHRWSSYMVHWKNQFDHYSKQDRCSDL
Assay Summary: Binding affinity to AChE (unknown origin) assessed as inhibition constant using acetylthiocholine iodide as substrate preincubated for 10 mins followed by substrate addition by Ellman's method
Assay Metric: pKi
Answer as the number alone; pKi is minus log10 of concentration in mol/L.

What value of measured pKi is listed for COc1cccc2c1CCC(NC(=O)OCc1ccccc1)C2 (stereo unspecified) ?
9.58

* * *

Target: Cholinesterase (Homo sapiens)
Sequence (P06276 whole entry): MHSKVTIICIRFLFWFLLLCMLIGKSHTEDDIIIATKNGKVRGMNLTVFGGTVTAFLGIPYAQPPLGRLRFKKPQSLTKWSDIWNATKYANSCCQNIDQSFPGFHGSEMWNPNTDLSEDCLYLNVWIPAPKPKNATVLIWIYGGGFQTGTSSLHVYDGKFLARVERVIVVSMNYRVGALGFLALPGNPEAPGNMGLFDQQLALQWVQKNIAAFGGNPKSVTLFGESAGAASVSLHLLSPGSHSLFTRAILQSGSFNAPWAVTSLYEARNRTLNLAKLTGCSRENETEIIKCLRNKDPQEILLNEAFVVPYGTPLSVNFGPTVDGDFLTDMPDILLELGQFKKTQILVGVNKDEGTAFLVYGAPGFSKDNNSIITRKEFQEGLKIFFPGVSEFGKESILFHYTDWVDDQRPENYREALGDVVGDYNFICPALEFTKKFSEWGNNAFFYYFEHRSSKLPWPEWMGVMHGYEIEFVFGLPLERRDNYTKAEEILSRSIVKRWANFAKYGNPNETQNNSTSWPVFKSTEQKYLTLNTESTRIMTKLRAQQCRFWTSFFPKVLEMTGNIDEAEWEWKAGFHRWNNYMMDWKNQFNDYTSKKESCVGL
Assay Summary: Inhibition of recombinant human serum BChE using butyrylthiocholine iodide as substrate preincubated for 20 mins followed by substrate addition measured for 45 to 90 mins by Ellman's method
Assay Metric: IC50 (nM)
Please reply with the bare figure in nM and do not write the unit itself.

What value of measured IC50 is listed for CN(CCCOc1ccc2ccc(=O)oc2c1)Cc1cccc(OC(=O)NC2CCCC2)c1 ?
6.42

* * *

Target: Carbonic anhydrase 1 (Homo sapiens, UniProt P00915)
Sequence (P00915 whole entry): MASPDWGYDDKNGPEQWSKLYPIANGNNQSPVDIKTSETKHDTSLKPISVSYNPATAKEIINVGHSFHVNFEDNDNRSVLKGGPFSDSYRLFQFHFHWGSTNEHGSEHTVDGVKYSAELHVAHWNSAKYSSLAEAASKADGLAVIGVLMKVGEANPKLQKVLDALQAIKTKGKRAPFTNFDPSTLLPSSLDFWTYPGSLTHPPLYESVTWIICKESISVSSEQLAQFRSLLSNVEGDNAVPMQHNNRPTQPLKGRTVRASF
Assay Metric: pIC50
Answer as the number alone; pIC50 is minus log10 of concentration in mol/L.

What value of measured pIC50 is listed for COc1cccc2c1CCCC2NS(=O)(=O)NC(=O)OCc1ccccc1 (stereo unspecified) ?
8.35

* * *

Attribute: log10 of IC50
Target: Amine oxidase [flavin-containing] A (Homo sapiens)
Sequence (P21397 whole entry): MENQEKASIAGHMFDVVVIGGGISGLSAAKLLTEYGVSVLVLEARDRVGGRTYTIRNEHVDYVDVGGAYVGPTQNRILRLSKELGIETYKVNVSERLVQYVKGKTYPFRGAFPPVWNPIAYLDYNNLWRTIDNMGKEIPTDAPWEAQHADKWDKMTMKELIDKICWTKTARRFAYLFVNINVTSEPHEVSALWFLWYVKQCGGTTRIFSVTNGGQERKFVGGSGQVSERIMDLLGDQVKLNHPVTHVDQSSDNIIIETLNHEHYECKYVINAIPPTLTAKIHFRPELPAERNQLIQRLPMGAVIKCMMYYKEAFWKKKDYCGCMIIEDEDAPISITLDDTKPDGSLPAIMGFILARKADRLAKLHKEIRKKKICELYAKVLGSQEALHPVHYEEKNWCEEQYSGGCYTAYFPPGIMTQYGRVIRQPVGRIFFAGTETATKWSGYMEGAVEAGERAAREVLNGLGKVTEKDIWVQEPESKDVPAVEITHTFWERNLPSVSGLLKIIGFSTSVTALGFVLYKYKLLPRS
Assay Summary: Inhibition of MAO-A (unknown origin)
Scale: decimal log of IC50, IC50 in nM.

Compound | log10 of IC50
CC/N=C1\CCc2c1n(C)c1ccc(OC(=O)NC)c(Cl)c21 | 2.00

Okay, now this compound:
What value of measured log10 of IC50 is listed for C#CCNC1CCc2c(OC(=O)N(C)CC)cccc21 (configuration not stated) ?
1.28

* * *

Target: Cholinesterase (Homo sapiens)
Assay Summary: Binding affinity to human BChE assessed as inhibition constant
Assay Metric: Ki (nM)
Please reply with the bare figure in nM and do not write the unit itself.

Compound | Unit Symbol | Endpoint Result
O=C(Nc1ccccc1)OC1CN2CCC1CC2 (configuration not stated) | nM | 3000

Okay, now this compound:
What value of measured Ki is listed for CCN(CC)C(=O)OC1C[N+]2(C)CCC1CC2 (configuration not stated) ?
1500

* * *

Attribute: pKi
Target: Acetylcholinesterase (Electrophorus electricus)
Answer as the number alone; pKi is minus log10 of concentration in mol/L.

Structure | pKi
COC(=O)CCC/C=C\C/C=C\C/C=C\CCOC(=O)Nc1cccc(Cl)c1 | 6.03
COC(=O)CCC/C=C\C/C=C\C/C=C\CCOC(=O)Nc1ccc(Br)cc1 | 5.96
COC(=O)CCC/C=C\C/C=C\C/C=C\CCOC(=O)Nc1ccc(OC)cc1 | 5.46

Okay, now this compound:
Reported pKi for Acetylcholinesterase (Electrophorus electricus), given COC(=O)CCC/C=C\C/C=C\C/C=C\CCOC(=O)Nc1ccc(Cl)cc1 ?
5.58

* * *

Assay Summary: Selectivity index, ratio of IC50 for electric eel AChE to IC50 for equine BChE
Assay Metric: Ratio IC50

Sample records with Ratio IC50:
Molecule | Ratio IC50
CCC(C)(C)NCC(O)c1cc(OC(=O)N(C)C)cc(OC(=O)N(C)C)c1 (stereo not drawn) | > 796
CCN(C)C(=O)Oc1cc(OC(=O)N(C)CC)cc(C(O)CNC(C)(C)CC)c1 (stereo not drawn) | > 862

Okay, now this molecule:
What value of measured Ratio IC50 is listed for CCCCCCCNC(=O)Oc1ccc2[nH]cc(CCNC(=O)c3ccccc3Nc3ccccc3)c2c1 ?
> 10000

* * *

Target: UniProt:P21397
Assay Summary: Inhibition of MAO-A (unknown origin)
pIC50: −log10 of the molar value.
rule met means recorded pIC50 is 6 or above; rule not met means it is below 6.

Compound | Class
C#CCNC1CCc2c(OC(=O)N(C)C)cccc21 (stereo not given) | rule met
CC/N=C1\CCc2c1n(C)c1ccc(OC(=O)NC)c(Br)c21 | rule met

Okay, now this compound:
Could you please find out whether C#CCN(C)C1CCc2cccc(OC(=O)N(C)C)c21 (stereo not given) has pIC50 that meets 6 or exceeds it?
rule not met

Where do the numbers come from? From ChEMBL document CHEMBL5214927.
